# Tested on: myeloid leukemia patient primary cells Pat.3
# protocol: area under dose-response curve (viability, 1 nM-10 uM) (fraction (0-1)); higher = more sensitive
# test.settings: 72 h
Some molecules, each annotated with its measured area under dose-response curve.
# answer = number (no unit)

Check out these entries, answers already filled in.
molecule: C[C@H](NC(=O)c1sccc1OCc1ccc(Cl)cc1)c1ccccc1
target.entity: myeloid leukemia patient primary cells Pat.3
assay.readout: area under dose-response curve
test.result: 0.124

molecule: O=C(O)Cn1nnc(-c2cc(N3CCC(Oc4cc(F)ccc4Br)CC3)no2)n1 [MK-8245]
target.entity: myeloid leukemia patient primary cells Pat.3
assay.readout: area under dose-response curve
test.result: 0.0756

molecule: C=C(C=NNC(=N)N)NNC(=N)N [Mitoguazone]
target.entity: myeloid leukemia patient primary cells Pat.3
assay.readout: area under dose-response curve
test.result: 0.412

## Task Look up area under dose-response curve: N#CC(C#N)=NNc1ccc(OC(F)(F)F)cc1 [FCCP]
## Result 0.361

## Task Look up area under dose-response curve: C=C(C)[C@H]1Cc2c(ccc3c2O[C@@H]2COc4cc(OC)c(OC)cc4[C@@H]2C3=O)O1 [Rotenone]
## Result 0.57

## Task Look up area under dose-response curve: CC[C@@]1(O)C(=O)OCc2c1cc1n(c2=O)Cc2cc3c(CN(C)C)c(O)ccc3nc2-1 [Topotecan]
## Result 0.54

Where these numbers come from: the supplement of paper PMC8671470
